assay: soluble on expression in E. coli; label from the status in PepcDB or PDB records

chainSequence | soluble on expression in E. coli
MGSDKIHHHHHHMSAEEQINQFKKFCAAIISFDEEEWQAMEKCLRIKFLSKDDYFLRQGKTCSRMGFVCKGYTRLFFLIDGEEHTKDFCFENTFTGSLASFLVRKPAAFNVVAMEDTYMLTIEYNALMELYKNYMCWNTFGRIVVEQFAIRKENREVTFLLNTPEKRYEEVSDQYPHLLQRAPLKMIASYLNMTPETLSRIRSKKTK | not soluble
MISLPSGTRIWLVAGVTDMRKSFNGLGEQVQHVLDETPFSGHLFIFRGRRGDTVKILWADADGLCLFTKRLEEGQFIWPAVRDGKVSITRSQLAMLLDKLDWRQPKTFRLNSLTML | not soluble

###

test: soluble on expression in E. coli; label from the status in PepcDB or PDB records

chainSequence | soluble on expression in E. coli
MPRPSQRLLSPEIITEAAMRMVDLTGDFTMPGLAERLKVRPSSLYNHVSGRAEIIELMRARMMAGIVVADPDGKWSETVAGLAREYRRNYAEHPRLIPLFTAHTVQSGVAFGLYNALAQAFSDGGFTPEEILHAITTVDSFVLGSALDLAAPEVVWATAPEANEAMLAALATSGPNPGRADAAFEFGLRTLIAGLVAQAPIEP | not soluble
MPSVPRVDRLKPIYTAAKALNFGWRFSDFLKIPAYNGISRYTNQLHRITVRFCKQSESSVGVRNFIENQLVEIGRKNPSVVIYAQPVRNSNPSIRAEYGNGRTLQINAKNMTQDEVSKDVHLLFSRSGEPVVKLESRQSALVPSIQGQWTPITWLPTEMNTEQLPAKQFSKHKSTATSATEYILQNPPK | not soluble

###

assay: soluble on expression in E. coli; label from the status in PepcDB or PDB records
quantityName: soluble on expression in E. coli

chainSequence | quantityName | observedResult
MGSDKIHHHHHHMMKKKWYIVLTMSGYEEKVKENIEKKVEATGIKNLVGRIVIPEEVVLDATSPSERLILSPKAKLHVNNGKDVNKGDLIAEEPPIYARRSGVIVDVKNVRKIVVETIDRKYTKTYYIPESAGIEPGLRVGTKVKQGLPLSKNEEYICELDGKIVEIERMKKVVVQTPDGEQDVYYIPLDVFDRDRIKKGKEVKQGEMLAEARKFFAKVSGRVEVVDYSTRKEIRIYKTKRRKLFPGYVFVEMIMNDEAYNFVRSVPYVMGFVSSGGQPVPVKDREMRPILRLAGLEEYEEKKKPVKVELGFKVGDMVKIISGPFEDFAGVIKEIDPERQELKVNVTIFGRETPVVLHVSEVEKIE | soluble on expression in E. coli | not soluble
MGSDKIHHHHHHMPRQLPPLYALRAFEAAARLSSFTRAGEELSITQSAISRHIRTLEEHFACRLFVRSGRSLQLTEAGRVLLPGVREGFAAFERACETLCGEDDILRMKAPSTLTMRWLLACLSRFRHLQPGNEVQLTSAWMDVDHVDFNQEPFDCAVLLSDGVFPPEWEVRKLFPELLIPVGAPDLLDEEPWDVCRLASVELLHPTVDKRDWREWLERMGLGDQVSLKGGQVFDTLELGMIAAARGYGISMGDLLMVAEDVAQKRLSLPWPTAVPSGMDYYLVWPRTRRGGERLRRLSAFLEGEVAAMDLPDVEILPRL | soluble on expression in E. coli | not soluble

Origin of measurements: the DeepSol protein solubility set
